# measuredOn: ROS1 (Homo sapiens)
# Construct: purchased Carna Biosciences 08-163
# assayComment: ROS1 kinase inhibitory activity evaluation (mobility shift, EZ Reader II)
# Assay type: biochemical
# conditions: ROS1 25 pg/μL, FL-Peptide 22 substrate, three separate measurements
pIC50: −log10 of the molar value.
metric: pIC50

Past entries and their recorded results:
1. C[C@@H](Oc1ccc2ncc(-c3ccc(N4C[C@@H](N)CC4=O)c(F)c3)n2n1)c1cncc(F)c1 [Example 109] : 7.22 to 8.00
2. C[C@@H](Oc1ccc2ncc(-c3ccc(N4C[C@@H](N(C)C)CC4=O)cc3)n2n1)c1cccc(F)c1 [Example 135] : 8.00 to 9.00

API: the following record is the query input.
Q. Missing value: pIC50, ROS1 (Homo sapiens), entry c1ccc(CNc2ccc3ncc(-c4ccc(O[C@@H]5CCNC5)cc4)n3n2)cc1 [Example 3] . Fill in?
A. 8.00 to 9.00

----------
# Lookup of reported IC50 keyed by entry
# measuredOn: ROS1 (Homo sapiens, UniProt P08922)
# Construct: purchased Carna Biosciences 08-163
# Sequence (P08922 28-2347): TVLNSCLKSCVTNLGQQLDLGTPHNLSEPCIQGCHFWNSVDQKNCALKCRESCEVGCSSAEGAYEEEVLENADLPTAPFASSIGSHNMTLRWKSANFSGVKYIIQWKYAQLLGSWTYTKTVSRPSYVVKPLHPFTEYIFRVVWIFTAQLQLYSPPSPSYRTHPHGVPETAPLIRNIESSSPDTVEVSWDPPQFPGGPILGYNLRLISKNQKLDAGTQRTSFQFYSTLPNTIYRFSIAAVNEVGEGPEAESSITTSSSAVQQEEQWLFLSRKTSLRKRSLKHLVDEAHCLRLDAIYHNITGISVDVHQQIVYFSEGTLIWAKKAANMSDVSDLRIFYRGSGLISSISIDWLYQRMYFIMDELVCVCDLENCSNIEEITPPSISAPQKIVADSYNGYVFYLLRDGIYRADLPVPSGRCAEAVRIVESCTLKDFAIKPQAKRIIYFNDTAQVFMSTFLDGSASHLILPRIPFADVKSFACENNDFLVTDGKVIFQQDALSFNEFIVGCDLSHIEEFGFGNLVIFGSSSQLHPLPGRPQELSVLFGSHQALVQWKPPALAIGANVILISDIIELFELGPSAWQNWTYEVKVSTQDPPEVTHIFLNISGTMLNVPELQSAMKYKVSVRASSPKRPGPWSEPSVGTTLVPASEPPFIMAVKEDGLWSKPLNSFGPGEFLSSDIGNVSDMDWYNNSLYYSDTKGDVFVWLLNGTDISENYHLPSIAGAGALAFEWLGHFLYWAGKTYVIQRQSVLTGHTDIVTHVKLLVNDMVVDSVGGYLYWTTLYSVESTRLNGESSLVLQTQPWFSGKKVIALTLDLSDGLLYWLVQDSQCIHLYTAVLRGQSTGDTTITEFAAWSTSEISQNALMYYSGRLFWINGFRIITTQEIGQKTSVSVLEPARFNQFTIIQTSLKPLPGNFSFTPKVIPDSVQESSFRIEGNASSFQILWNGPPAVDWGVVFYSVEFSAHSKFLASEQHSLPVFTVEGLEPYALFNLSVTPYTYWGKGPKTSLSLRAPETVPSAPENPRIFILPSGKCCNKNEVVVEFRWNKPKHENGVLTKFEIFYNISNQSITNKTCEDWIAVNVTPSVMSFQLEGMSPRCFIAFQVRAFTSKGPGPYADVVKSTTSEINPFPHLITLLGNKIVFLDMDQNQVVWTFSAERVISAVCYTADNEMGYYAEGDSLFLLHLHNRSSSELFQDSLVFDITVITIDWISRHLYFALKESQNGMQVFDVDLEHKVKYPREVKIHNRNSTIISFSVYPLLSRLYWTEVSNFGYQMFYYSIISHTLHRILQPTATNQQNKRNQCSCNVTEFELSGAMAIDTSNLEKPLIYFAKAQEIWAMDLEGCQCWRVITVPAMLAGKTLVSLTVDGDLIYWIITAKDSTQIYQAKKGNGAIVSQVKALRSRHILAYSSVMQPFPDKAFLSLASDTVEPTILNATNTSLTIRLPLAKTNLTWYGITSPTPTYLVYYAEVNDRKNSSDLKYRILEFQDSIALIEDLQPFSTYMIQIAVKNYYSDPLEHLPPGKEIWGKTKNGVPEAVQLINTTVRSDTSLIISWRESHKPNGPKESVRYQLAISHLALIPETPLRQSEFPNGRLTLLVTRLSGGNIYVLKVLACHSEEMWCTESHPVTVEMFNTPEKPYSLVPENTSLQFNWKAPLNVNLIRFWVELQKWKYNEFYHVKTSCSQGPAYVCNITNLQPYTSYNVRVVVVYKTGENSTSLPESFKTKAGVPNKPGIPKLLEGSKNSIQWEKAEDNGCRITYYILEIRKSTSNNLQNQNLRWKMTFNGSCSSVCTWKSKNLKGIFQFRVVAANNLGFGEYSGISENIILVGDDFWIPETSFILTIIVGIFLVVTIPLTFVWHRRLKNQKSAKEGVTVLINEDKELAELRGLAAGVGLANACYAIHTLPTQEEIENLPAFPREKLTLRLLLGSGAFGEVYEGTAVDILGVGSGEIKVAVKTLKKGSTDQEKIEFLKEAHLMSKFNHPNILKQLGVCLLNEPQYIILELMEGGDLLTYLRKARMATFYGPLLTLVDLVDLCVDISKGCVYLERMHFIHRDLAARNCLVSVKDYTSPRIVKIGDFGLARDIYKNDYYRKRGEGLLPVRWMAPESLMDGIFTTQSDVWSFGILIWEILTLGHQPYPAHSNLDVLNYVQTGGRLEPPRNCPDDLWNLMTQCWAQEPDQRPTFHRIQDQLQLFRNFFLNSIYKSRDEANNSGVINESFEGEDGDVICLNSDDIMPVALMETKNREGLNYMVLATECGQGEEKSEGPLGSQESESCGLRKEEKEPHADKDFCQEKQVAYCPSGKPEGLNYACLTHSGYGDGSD
# assayComment: ROS1 autophosphorylation inhibitory activity evaluation (ADP-Glo)
# Format: biochemical
# conditions: 200 nM inactive ROS1, ATP 1 mM, 25° C. 1.5 hours, ADP generated, four separate measurements
# Experimental: Fifty mM HEPES (pH 7.5), 10 mM MgCl2, 0.01% Brij-58, and 2.5 mM DTT were mixed to prepare an enzymatic reaction solution. […] ATP (final concentration: 1 mM) was further added thereto at a concentration of 2.5 μL/well. […] The amount of ADP generated by the autophosphorylation of ROS1 was measured using EnVision (PerkinElmer Japan). […] IC50 values were calculated by curve fitting using GraphPad Prism version 4 (GraphPad software).

1) CN(Cc1cccc(F)c1)c1ccc2ncc(-c3ccc(OC[C@@H]4CCCN4)cc3)n2n1 [Example 10] : 0.02 to 0.1 µM
2) CN(Cc1cccnc1)c1ccc2ncc(-c3ccc(N4C[C@@H](N)CC4=O)cc3)n2n1 [Example 117] : 0.02 to 0.1 µM
3) CN(Cc1cccc(F)c1)c1ccc2ncc(-c3ccc(N4CC(C)(N)CC4=O)cc3)n2n1 (single isomer, unassigned) [Example 86] : < 0.02 µM
4) C[C@@H](Nc1ccc2ncc(-c3ccc(O[C@@H]4CCNC4)cc3)n2n1)c1cccc(F)c1 [Example 22] : < 0.02 µM
5) Cc1cc(N2C[C@@H](N)CC2=O)ccc1-c1cnc2ccc(N[C@H](C)c3ccccc3)nn12 [Example 89] : 0.02 to 0.1 µM
6) C[C@@H](Nc1ccc2ncc(-c3ccc(N4C[C@@H](N)CC4=O)cc3F)n2n1)c1cccc(F)c1 [Example 93] : < 0.02 µM

Q. Missing value: IC50, ROS1 (Homo sapiens, UniProt P08922), entry C[C@H](O)[C@@H](N)COc1ccc(-c2cnc3ccc(N[C@H](C)c4cccc(F)c4)nn23)cc1 [Example 55] . Fill in?
A. < 0.02 µM

----------
# Tested on: HCC78 cells having ROS1 fusion gene
# assayComment: HCC78 cell growth assay (CellTiter-Glo)
# Format: cell-based
# conditions: Homo sapiens, HCC78, 72 h, 72 hours culture, 2% FBS medium, luminescence, four separate measurements; read-out: growth inhibitory effect on HCC78 cells having ROS1 fusion gene IC50
# Lookup of reported IC50 keyed by entry

1) CN(Cc1cccc(F)c1)c1ccc2ncc(-c3ccc(N4CC(C)(N)CC4=O)cc3)n2n1 (single isomer, unassigned) [Example 87] : 20 to 100 nM
2) CN(Cc1cncc(Cl)c1)c1ccc2ncc(-c3ccc(N4CC(C)(N)CC4=O)cc3)n2n1 (stereo not drawn) : 20 to 100 nM
3) C[C@@H](Nc1ccc2ncc(-c3ccc(OC[C@@H]4CCCN4)cc3)n2n1)c1cccc(F)c1 : 20 to 100 nM
4) CC[C@H](N)COc1ccc(-c2cnc3ccc(N[C@H](C)c4cccc(F)c4)nn23)cc1 : < 20 nM
5) CC(Oc1ccc2ncc(-c3ccc(N4C[C@@H](N)CC4=O)cc3)n2n1)c1nccs1 (stereo partly drawn) : 100 to 600 nM
6) C[C@@H](Nc1ccc2ncc(-c3ccc(OC[C@@H]4CCN4)c(F)c3)n2n1)c1cccc(F)c1 : < 20 nM
7) CCN(Cc1cccc(F)c1)c1ccc2ncc(-c3ccc(N4C[C@@H](N)CC4=O)cc3)n2n1 : 20 to 100 nM
8) CN(Cc1cc(F)cc(F)c1)c1ccc2ncc(-c3ccc(N4C[C@@H](N)CC4=O)cc3)n2n1 : < 20 nM
9) OCCN1CCC[C@H]1COc1cccc(-c2cnc3ccc(NCc4ccccc4)nn23)c1 : 20 to 100 nM
10) CN(Cc1cncc(F)c1Cl)c1ccc2ncc(-c3ccc(N4C[C@@H](N)CC4=O)cc3)n2n1 : 20 to 100 nM

Q. Missing value: IC50, HCC78 cells having ROS1 fusion gene, entry CC(N)COc1ccc(-c2cnc3ccc(N[C@H](C)c4cccc(F)c4)nn23)cc1 (stereo partly drawn) . Fill in?
A. < 20 nM

Q. // repeat for C[C@@H](Nc1ccc2ncc(-c3ccc(OC[C@@H]4CC(F)CN4)cc3)n2n1)c1cccc(F)c1 (stereo in doubt) and report
A. 20 to 100 nM

Q. // repeat for C[C@@H](N)COc1cccc(-c2cnc3ccc(N[C@H](C)c4cccc(F)c4)nn23)c1 and report
A. 20 to 100 nM

Q. // repeat for C[C@@H](Nc1ccc2ncc(-c3cccc(OC[C@@H]4CCN4)c3)n2n1)c1cccc(F)c1 and report
A. 20 to 100 nM

Q. // repeat for C[C@@H](Nc1ccc2ncc(-c3ccc(N4C[C@@H](N)CC4=O)cc3)n2n1)c1ccccc1 and report
A. < 20 nM

----------
# Lookup of reported IC50 keyed by entry
# measuredOn: ROS1 (Homo sapiens, UniProt P08922)
# Construct: purchased Carna Biosciences 08-163
# assayComment: ROS1 kinase inhibitory activity evaluation (mobility shift, EZ Reader II)
# Type: biochemical
# conditions: ROS1 25 pg/μL, FL-Peptide 22 substrate, three separate measurements
Counter-ions that a name gives are not always drawn.

Past entries and their recorded results:
1) CC1(N)CN(c2ccc(-c3cnc4ccc(OCc5cccc(F)c5)nn34)cc2)C(=O)C12CC2 (stereo not shown) [Example 77] : < 1 nM
2) C[C@H](N)COc1ccc(-c2cnc3ccc(N[C@H](C)c4cccc(F)c4)nn23)cn1 [Example 63] : < 1 nM

Q. Missing value: IC50, ROS1 (Homo sapiens, UniProt P08922), entry CNCCOc1ccc(-c2cnc3ccc(N[C@H](C)c4cccc(F)c4)nn23)cc1 [Example 29] . Fill in?
A. < 1 nM

Q. // repeat for CC(Oc1ccc2ncc(-c3ccc(N4C[C@@H](N)CC4=O)cc3)n2n1)c1cc(F)cnc1F (stereo partly shown) [Example 134, hydrochloride] and report
A. 1 to 10 nM

Q. // repeat for C[C@@H](Nc1ccc2ncc(-c3ccc(OCCNCCO)cc3)n2n1)c1cccc(F)c1 [Example 42] and report
A. < 1 nM

Q. // repeat for CC(Oc1ccc2ncc(-c3ccc(N4C[C@@H](N)CC4=O)cc3)n2n1)c1cc(Cl)n(C)n1 (stereo partly shown) [Example 113] and report
A. 1 to 10 nM

Q. // repeat for C[C@@H](Nc1ccc2ncc(-c3ccc(OC[C@@H]4CCNC4)cc3)n2n1)c1cccc(F)c1 [Example 23] and report
A. < 1 nM

Q. // repeat for CN(Cc1ccccc1)c1ccc2ncc(-c3ccc(N4C[C@@H](N)CC4=O)cc3)n2n1 [Example 94] and report
A. 1 to 10 nM

Q. // repeat for Fc1cccc(COc2ccc3ncc(-c4ccc(O[C@@H]5CCNC5)cc4)n3n2)c1 [Example 13] and report
A. 1 to 10 nM

Q. // repeat for CC(Oc1ccc2ncc(-c3ccc(N4C[C@@H](N)CC4=O)cc3)n2n1)c1cccc(F)c1F (stereo partly shown) [Example 102] and report
A. 1 to 10 nM

Q. // repeat for C[C@@H](Oc1ccc2ncc(-c3ccc(N4C[C@@H](N)CC4=O)cc3)n2n1)c1cccc(F)c1 [Example 79] and report
A. < 1 nM

Q. // repeat for COc1cc(N2C[C@@H](N)CC2=O)ccc1-c1cnc2ccc(N(C)Cc3cccc(F)c3)nn12 [Example 85] and report
A. 1 to 10 nM

Q. // repeat for C[C@@H](Oc1ccc2ncc(-c3ccc(N4C[C@H](N)CC4=O)cc3)n2n1)c1cccc(F)c1 [Example 78] and report
A. 1 to 10 nM

Q. // repeat for C[C@@H](Oc1ccc2ncc(-c3ccc(N4C[C@@H](N)CC4=O)cc3F)n2n1)c1cncc(F)c1 [Example 110] and report
A. 1 to 10 nM

Q. // repeat for CCN(Cc1ccccc1)c1ccc2ncc(-c3ccc(N4C[C@@H](N)CC4=O)cc3)n2n1 [Example 95] and report
A. 1 to 10 nM

Q. // repeat for C[C@@H](Nc1ccc2ncc(-c3cccc(OC[C@@H]4CCN4)c3)n2n1)c1cccc(F)c1 [Example 57] and report
A. 1 to 10 nM
